System: Echinochloa crus-galli
Experiment: Test Example 11: herbicidal effect test by soil treatment in paddy field
Assay type: in vivo
Conditions: 120 g/10a active ingredient, 14 days after treatment
Outcome Measure: Weed suppression rate (%) Echinochloa crus-galli
Answer with the number, then the unit.

Cc1nn(S(=O)(=O)C2CC2)c(=O)n1C(=O)N(c1ccc(F)cc1F)C(C)C 90%
CC(C)N(C(=O)n1cnn(S(=O)(=O)c2ccc(F)cc2)c1=O)c1cccc(F)c1F 100%
Cc1ccc(N(C(=O)n2cnn(S(=O)(=O)CCl)c2=O)C(C)C)c(F)c1 90%
Cc1ccc(S(=O)(=O)n2ncn(C(=O)N(c3ccccc3F)C(C)C)c2=O)cc1 90%

What the record says about CCS(=O)(=O)n1ncn(C(=O)N(c2c(F)cccc2F)C(C)C)c1=O : Weed suppression rate (%) Echinochloa crus-galli is 100%

What the record says about CC(C)N(C(=O)n1cnn(S(=O)(=O)c2ccc(C(C)(C)C)cc2)c1=O)c1ccc(F)c(F)c1F : Weed suppression rate (%) Echinochloa crus-galli is 90%

----------
// Weed suppression rate (%) Echinochloa crus-galli lookup, one value per entry
Tested on: Echinochloa crus-galli
Assay: Test Example 12: herbicidal effect test by treatment during growing period in paddy field
Type: in vivo
Conditions: 120 g/10a; treatment seven days after sowing in flooded paddy pot; assessed 14 days after treatment
Numeric answer only, unit % assumed.

Example compounds with recorded Weed suppression rate (%) Echinochloa crus-galli:
CN(C(=O)n1cnn(S(C)(=O)=O)c1=O)c1ccc(F)cc1F 90
Cc1ccc(S(=O)(=O)n2ncn(C(=O)N(c3ccc(C)cc3F)C(C)C)c2=O)cc1 90
CC(C)N(C(=O)n1cnn(S(=O)(=O)c2ccc(C(C)(C)C)cc2)c1=O)c1ccc(Cl)cn1 80
CCN(CC)C(=O)n1cnn(S(=O)(=O)c2ccc(F)cc2)c1=O 90

Now let's try a different one.
Lab entry: Echinochloa crus-galli assay, compound CC(C)N(C(=O)n1cnn(S(=O)(=O)c2cccs2)c1=O)c1ccc(F)cc1Cl , Weed suppression rate (%) Echinochloa crus-galli = 90

----------
Test system: Monochoria vaginalis
Assay: Test Example 12: herbicidal effect test by treatment during growing period in paddy field
Format: in vivo
Settings: 120 g/10a; treatment seven days after sowing in flooded paddy pot; assessed 14 days after treatment
Protocol: This test was performed with two replications per one formulation concentration plot, and 14 days after the formulation treatments, the weed suppression rate (%) was determined according to the following equation (Math. 2). Weed suppression rate (%)=(1−average dry weight (g) of plants in treated plots/average dry weight (g) of plants in untreated plots)×100 [Math. 2] […]
Outcome Measure: Weed suppression rate (%) Monochoria vaginalis
Numeric answer only, unit % assumed.

Lab entry: Monochoria vaginalis assay, compound CC(C)N(C(=O)n1cnn(S(=O)(=O)c2ccc(C(C)(C)C)cc2)c1=O)c1ccc(Cl)cc1Br , Weed suppression rate (%) Monochoria vaginalis = 70

Lab entry: Monochoria vaginalis assay, compound CCS(=O)(=O)n1ncn(C(=O)N(c2ccc(F)cc2F)C(C)C)c1=O , Weed suppression rate (%) Monochoria vaginalis = 90

Lab entry: Monochoria vaginalis assay, compound Cc1ccc(S(=O)(=O)n2ncn(C(=O)N(c3ccc(Cl)cc3F)C(C)C)c2=O)cc1 , Weed suppression rate (%) Monochoria vaginalis = 90

Lab entry: Monochoria vaginalis assay, compound CC(C)N(C(=O)n1cnn(S(=O)(=O)c2ccccc2F)c1=O)c1cccc(F)c1F , Weed suppression rate (%) Monochoria vaginalis = 100

Lab entry: Monochoria vaginalis assay, compound CC(C)N(C(=O)n1cnn(S(=O)(=O)C2CC2)c1=O)c1c(F)cccc1F , Weed suppression rate (%) Monochoria vaginalis = 90

Lab entry: Monochoria vaginalis assay, compound CC(C)N(C(=O)n1cnn(S(=O)(=O)C2CC2)c1=O)c1ccc(C#N)cc1Cl , Weed suppression rate (%) Monochoria vaginalis = 80

Lab entry: Monochoria vaginalis assay, compound CC(C)CN(C)S(=O)(=O)n1ncn(C(=O)N(c2ccc(F)cc2F)C(C)C)c1=O , Weed suppression rate (%) Monochoria vaginalis = 80

Lab entry: Monochoria vaginalis assay, compound CC(C)N(C(=O)n1cnn(S(=O)(=O)c2cccs2)c1=O)c1ccc(C(F)(F)F)cc1Cl , Weed suppression rate (%) Monochoria vaginalis = 80

Lab entry: Monochoria vaginalis assay, compound Cc1ccc(S(=O)(=O)n2ncn(C(=O)N(c3ccc(F)cc3F)C(C)C)c2=O)cc1 , Weed suppression rate (%) Monochoria vaginalis = 90

----------
// herbicidal effect, Amaranthus viridis lookup, one value per entry
Test system: Amaranthus viridis
Experiment: Test Example 14: herbicidal effect test by foliage treatment in upland field
Format: in vivo
Settings: 7 days after sowing, 120 g/10a, 14 days after treatment
Numeric answer only, unit % assumed.

Compound	Outcome Measure	Unit Descriptor	Result Value
CC(C)N(C(=O)n1cnn(S(=O)(=O)c2ccccc2F)c1=O)c1ccc(F)c(F)c1F	herbicidal effect, Amaranthus viridis	%	70
CC(C)N(C(=O)n1cnn(S(=O)(=O)C2CC2)c1=O)c1c(F)cc(F)cc1F	herbicidal effect, Amaranthus viridis	%	30
CC(C)N(C(=O)n1cnn(S(=O)(=O)C(C)C)c1=O)c1ccc(C(F)(F)F)cc1F	herbicidal effect, Amaranthus viridis	%	80
Cc1cc(C)c(S(=O)(=O)n2ncn(C(=O)N(c3ccc(F)cc3C)C(C)C)c2=O)c(C)c1	herbicidal effect, Amaranthus viridis	%	30
Cc1ccc(N(C(=O)n2cnn(S(C)(=O)=O)c2=O)C(C)C)c(F)c1	herbicidal effect, Amaranthus viridis	%	90

What the record says about CC(C)N(C(=O)n1cnn(S(=O)(=O)C2CC2)c1=O)c1ccc(Cl)nc1Cl : herbicidal effect, Amaranthus viridis is 90

What the record says about Cc1ccc(S(=O)(=O)n2ncn(C(=O)N(c3c(F)cc(F)cc3F)C(C)C)c2=O)cc1 : herbicidal effect, Amaranthus viridis is 60

What the record says about CC(C)N(C(=O)n1cnn(S(C)(=O)=O)c1=O)c1ccc(Cl)cn1 : herbicidal effect, Amaranthus viridis is 0

What the record says about CC(C)N(C(=O)n1cnn(S(=O)(=O)c2ccc(F)cc2)c1=O)c1ccccc1 : herbicidal effect, Amaranthus viridis is 50

What the record says about CC(C)N(C(=O)n1cnn(S(=O)(=O)C(C)C)c1=O)c1ccccc1F : herbicidal effect, Amaranthus viridis is 90

What the record says about CC(C)N(C(=O)n1cnn(S(=O)(=O)CCl)c1=O)c1ccc(F)cc1F : herbicidal effect, Amaranthus viridis is 40

What the record says about CCN(CC)C(=O)n1cnn(S(=O)(=O)c2ccccc2Cl)c1=O : herbicidal effect, Amaranthus viridis is 40

What the record says about CC(C)N(C(=O)n1cnn(S(C)(=O)=O)c1=O)c1c(F)c(F)cc(F)c1F : herbicidal effect, Amaranthus viridis is 100

What the record says about Cc1ccc(S(=O)(=O)n2ncn(C(=O)N(c3ccccc3)C(C)C)c2=O)cc1 : herbicidal effect, Amaranthus viridis is 60

What the record says about CC(C)N(C(=O)n1cnn(S(=O)(=O)C2CC2)c1=O)c1ccc(C(F)(F)F)cc1F : herbicidal effect, Amaranthus viridis is 60

What the record says about Cc1cc(C)c(S(=O)(=O)n2ncn(C(=O)N(c3ccccc3)C(C)C)c2=O)c(C)c1 : herbicidal effect, Amaranthus viridis is 60

What the record says about CCN(CC)C(=O)n1cnn(S(=O)(=O)c2ccc(F)cc2)c1=O : herbicidal effect, Amaranthus viridis is 40

What the record says about CC(C)N(C(=O)n1cnn(S(=O)(=O)c2ccc(F)cc2)c1=O)c1ccc(F)cc1F : herbicidal effect, Amaranthus viridis is 40

What the record says about Cc1ccc(S(=O)(=O)n2ncn(C(=O)N(c3ccc(F)cc3F)C(C)C)c2=O)cc1 : herbicidal effect, Amaranthus viridis is 0

What the record says about CCC(C)S(=O)(=O)n1ncn(C(=O)N(c2ccc(F)cc2F)C(C)C)c1=O (centres unmarked) : herbicidal effect, Amaranthus viridis is 90

What the record says about COc1ccc(S(=O)(=O)n2ncn(C(=O)N(c3c(F)cc(F)cc3F)C(C)C)c2=O)cc1 : herbicidal effect, Amaranthus viridis is 30

What the record says about CC(C)N(C(=O)n1cnn(S(=O)(=O)C2CCCCC2)c1=O)c1ccc(F)cc1Cl : herbicidal effect, Amaranthus viridis is 90

----------
Tested on: Monochoria vaginalis
Experiment: Test Example 12: herbicidal effect test by treatment during growing period in paddy field
Type: in vivo
Settings: 120 g/10a; treatment seven days after sowing in flooded paddy pot; assessed 14 days after treatment
// Weed suppression rate (%) Monochoria vaginalis lookup, one value per entry
Numeric answer only, unit % assumed.

Example molecules with recorded Weed suppression rate (%) Monochoria vaginalis:
Cc1ccc(N(C(=O)n2cnn(S(=O)(=O)C(C)C)c2=O)C(C)C)c(F)c1 80
Cc1cc(C)c(S(=O)(=O)n2ncn(C(=O)N(c3cccc(F)c3)C(C)C)c2=O)c(C)c1 90
CC(C)N(C(=O)n1cnn(S(=O)(=O)C2CCCCC2)c1=O)c1c(F)cc(F)cc1F 80

Lab entry: Monochoria vaginalis assay, molecule CC(C)CS(=O)(=O)n1ncn(C(=O)N(c2ccc(F)cc2F)C(C)C)c1=O , Weed suppression rate (%) Monochoria vaginalis = 90

Lab entry: Monochoria vaginalis assay, molecule CC(C)N(C(=O)n1cnn(S(=O)(=O)c2ccc(Cl)cc2)c1=O)c1ccc(F)c(F)c1F , Weed suppression rate (%) Monochoria vaginalis = 70
